# tested_target: Pancreatic alpha-amylase (Sus scrofa)
# Sequence (P00690 whole entry): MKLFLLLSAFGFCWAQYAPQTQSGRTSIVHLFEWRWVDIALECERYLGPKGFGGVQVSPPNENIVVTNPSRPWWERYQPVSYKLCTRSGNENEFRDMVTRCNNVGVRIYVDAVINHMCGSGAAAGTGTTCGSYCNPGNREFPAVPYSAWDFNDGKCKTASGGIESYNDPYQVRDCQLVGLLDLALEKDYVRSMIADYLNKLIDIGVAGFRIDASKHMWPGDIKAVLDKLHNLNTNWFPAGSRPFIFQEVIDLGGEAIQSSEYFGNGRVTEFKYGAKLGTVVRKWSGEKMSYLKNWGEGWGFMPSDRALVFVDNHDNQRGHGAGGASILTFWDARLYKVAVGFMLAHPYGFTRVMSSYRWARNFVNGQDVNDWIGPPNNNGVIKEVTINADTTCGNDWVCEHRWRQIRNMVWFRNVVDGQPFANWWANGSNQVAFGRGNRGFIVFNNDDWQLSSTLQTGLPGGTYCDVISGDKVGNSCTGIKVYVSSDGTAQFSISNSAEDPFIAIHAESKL
# test_summary: Inhibition of porcine pancreatic alpha-amylase using DP17 amylose as substrate preincubated for 5 mins followed by substrate addition by copper-bicinchoninate method
pKi: −log10 of the molar value.
property: pKi

Query string: Fill blank: measured pKi of the compound `O=S(=O)(O)O[C@@H](CO)[C@@H](O)CN1C[C@@H](O)[C@H](O)[C@H]1CO` is ____.
Result string: > 2.00

----------
Each item that follows carries a reported IC50.
# tested_target: Alpha amylase (Homo sapiens, UniProt P0DUB6)
# test_summary: Inhibition of alpha-amylase (unknown origin) relative to control
Report only the number, with the unit mM understood.

Illustrative cases are given below, each with its answer.
{"compound": "O=C1C[C@@H](c2ccc(O)cc2)Oc2cc(O)cc(O)c21", "IC50, mM": 1.8}
{"compound": "COc1cc2ccc(=O)oc2cc1O", "IC50, mM": 1.3}
{"compound": "O=C(O)/C=C/c1ccc(O)c(O)c1", "IC50, mM": 4.8}
{"compound": "Oc1cc(O)c2c(c1)O[C@H](c1ccc(O)c(O)c1)[C@H](O)C2 [(-)-EPICATECHIN]", "IC50, mM": 3.5}
{"compound": "O=c1ccc2cc(O[C@@H]3O[C@H](CO)[C@@H](O)[C@H](O)[C@H]3O)c(O)cc2o1", "IC50, mM": 1.67}
{"compound": "O=C(/C=C/c1ccc(O)c(O)c1)O[C@@H]1C[C@](O)(C(=O)O)C[C@@H](OC(=O)/C=C/c2ccc(O)c(O)c2)[C@H]1O", "IC50, mM": 0.39}
{"compound": "O=C(O)[C@]1(O)C[C@@H](O)[C@@H](O)[C@H](O)C1", "IC50, mM": 13}
{"compound": "O=c1cc(-c2ccc(O)c(O)c2)oc2cc(O[C@@H]3O[C@H](CO)[C@@H](O)[C@H](O)[C@H]3O)cc(O)c12", "IC50, mM": 0.28}

Let's switch to this compound now.
Query string: Please tell me: IC50 of `O=C(/C=C/c1ccc(O)c(O)c1)O[C@H](Cc1ccc(O)c(O)c1)C(=O)O` , system Alpha amylase (Homo sapiens, UniProt P0DUB6)?
Result string: 1.4

----------
Reported inhibition values follow for various molecules
# tested_target: Alpha amylase (Homo sapiens) (UniProt P0DUB6)
# Sequence (P0DUB6 whole entry, looked up): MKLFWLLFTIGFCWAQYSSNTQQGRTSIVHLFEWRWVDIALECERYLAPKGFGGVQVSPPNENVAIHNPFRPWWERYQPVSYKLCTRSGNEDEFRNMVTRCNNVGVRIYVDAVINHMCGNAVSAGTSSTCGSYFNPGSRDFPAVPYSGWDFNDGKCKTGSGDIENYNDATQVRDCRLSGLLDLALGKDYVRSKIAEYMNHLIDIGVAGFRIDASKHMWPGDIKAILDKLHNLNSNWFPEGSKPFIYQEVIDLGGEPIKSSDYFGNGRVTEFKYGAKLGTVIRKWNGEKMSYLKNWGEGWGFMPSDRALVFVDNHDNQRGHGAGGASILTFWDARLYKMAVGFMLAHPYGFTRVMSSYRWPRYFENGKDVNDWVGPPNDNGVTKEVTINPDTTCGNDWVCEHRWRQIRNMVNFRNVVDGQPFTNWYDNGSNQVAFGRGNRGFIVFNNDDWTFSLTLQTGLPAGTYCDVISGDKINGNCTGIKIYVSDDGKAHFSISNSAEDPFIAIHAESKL
# test_summary: Inhibition of alpha-amylase (unknown origin) relative to control
# Design: concentration or dose not given beside the values
# assay_setup: concentration not given here
The figure you give is taken to be in %; do not add the unit.

{"compound_smiles": "Oc1cc(O)c2cc(O)c(-c3ccc(O)c(O)c3)[o+]c2c1", "tested_target": "Alpha amylase (Homo sapiens) (UniProt P0DUB6)", "units_label": "%", "inhibition": 12}
{"compound_smiles": "C[C@@H]1O[C@@H](Oc2c(-c3ccc(O)c(O)c3)oc3cc(O)cc(O)c3c2=O)[C@H](O)[C@H](O)[C@H]1O", "tested_target": "Alpha amylase (Homo sapiens) (UniProt P0DUB6)", "units_label": "%", "inhibition": 37.6}

Query string: What measured inhibition is associated with `O=c1ccc2cc(O)c(O)cc2o1` on Alpha amylase (Homo sapiens) (UniProt P0DUB6)?
Result string: 17.4

Query string: Also, `C[C@@H]1O[C@@H](OC[C@H]2O[C@@H](Oc3c(-c4ccc(O)c(O)c4)oc4cc(O)cc(O)c4c3=O)[C@H](O)[C@@H](O)[C@@H]2O)[C@H](O)[C@H](O)[C@H]1O` please.
Result string: 20.1

Query string: Input `OC[C@H]1O[C@@H](Oc2ccc(O)cc2)[C@H](O)[C@@H](O)[C@@H]1O`
Result string: 30

src = ChEMBL document CHEMBL3616379
